The entries below are paired with their reported Kd.
# target-system: T1, Methionine aminopeptidase from E. coli (E. coli, UniProt P0AE18 1-264)
# T1 sequence: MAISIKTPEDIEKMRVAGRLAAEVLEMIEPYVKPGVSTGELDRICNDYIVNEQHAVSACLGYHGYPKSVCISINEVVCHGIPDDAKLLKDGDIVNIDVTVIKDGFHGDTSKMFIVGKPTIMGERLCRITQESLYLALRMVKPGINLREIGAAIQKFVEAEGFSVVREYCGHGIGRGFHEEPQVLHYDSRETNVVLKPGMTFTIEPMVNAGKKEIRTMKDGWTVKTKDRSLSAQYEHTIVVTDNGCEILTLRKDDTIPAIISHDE
# assay-explanation: BLI
Where no end group is shown, it is not given here. The star is where a group is joined. BMPH = NNC(=O)CCN1C(=O)CC(*)C1=O
attribute-measured: Kd (µM)

LGMMSC(BMPH) [N-terminal leucine peptide (X-GMMSC, X = leucine)]; 54.2
MGMMSC(BMPH) [N-terminal methionine peptide (X-GMMSC, X = methionine)]; 2.65
